Value source: patent US20250268903A1

test-system: human RXFP1 (Homo sapiens, UniProt Q9HBX9)
experiment: hRXFP1 HEK293 cAMP assay (HTRF)
recorded-conditions: HEK293 cells stably expressing human RXFP1, 30 min at room temperature
Each item that follows carries a reported log10 of EC50.
// stored as log10 of EC50 expressed in nM

Endpoint output: log10 of EC50 of COc1ccc(CCCCCCOC(=O)NC2CCC2)cc1C(=O)N[C@@H]1C2CCC(/C2=C/C(F)(F)F)[C@@H]1C(=O)Nc1ccc(F)c(C(F)(F)F)c1 (stereo partly shown) [Example 101] . Value? 2.29

Also check COc1ccc(C2CCCCC2O)cc1C(=O)N[C@@H]1C2CCC(/C2=C/C(F)(F)F)[C@@H]1C(=O)Nc1ccc(F)c(C(F)(F)F)c1 (mixture of isomers) [Example 59] 3.10

Also check COc1ccc(CC(=O)N2CCC(C)(O)C2)cc1C(=O)NC1C(C(=O)Nc2ccc(F)c(C(F)(F)F)c2)[C@H]2CC[C@@H]1/C2=C\C1CC1 (stereo partly shown) [Example 357] 3.11

Also check COc1ccc(CCC2CCOCC2)cc1C(=O)NC1C2CCC(/C2=C/C(F)(F)F)[C@@H]1C(=O)Nc1ccc(F)c(C(F)(F)F)c1 (stereo partly shown) [Example 180] 2.23

---

test-system: UniProt Q9HBX9
experiment: hRXFP1 HEK293 cAMP assay (HTRF)
recorded-conditions: HEK293 cells stably expressing human RXFP1, 30 min at room temperature
Each item that follows carries a reported EC50.
Respond numerically; units are nM and should not be typed.

Lab note: need EC50 with UniProt Q9HBX9 for entry COc1ccc(S(=O)(=O)N2CCOCC2)cc1C(=O)NC1C2CCC(/C2=C/C(F)(F)F)[C@@H]1C(=O)Nc1ccc(F)c(C(F)(F)F)c1 (stereo partly drawn) [Example 199] , please look it up. 719

Also check COc1c(F)cc(C2CC3CC(CO)CC3C2)cc1C(=O)N[C@H]1[C@@H](C(=O)Nc2ccc(F)c(C(F)(F)F)c2)[C@H]2CC[C@@H]1/C2=C\C1CCCC1 (stereo partly drawn) [Example 370] 9.7

---

test-system: human RXFP1 (Homo sapiens)
Construct: expressed in transfected cells
Sequence (Q9HBX9 1-757): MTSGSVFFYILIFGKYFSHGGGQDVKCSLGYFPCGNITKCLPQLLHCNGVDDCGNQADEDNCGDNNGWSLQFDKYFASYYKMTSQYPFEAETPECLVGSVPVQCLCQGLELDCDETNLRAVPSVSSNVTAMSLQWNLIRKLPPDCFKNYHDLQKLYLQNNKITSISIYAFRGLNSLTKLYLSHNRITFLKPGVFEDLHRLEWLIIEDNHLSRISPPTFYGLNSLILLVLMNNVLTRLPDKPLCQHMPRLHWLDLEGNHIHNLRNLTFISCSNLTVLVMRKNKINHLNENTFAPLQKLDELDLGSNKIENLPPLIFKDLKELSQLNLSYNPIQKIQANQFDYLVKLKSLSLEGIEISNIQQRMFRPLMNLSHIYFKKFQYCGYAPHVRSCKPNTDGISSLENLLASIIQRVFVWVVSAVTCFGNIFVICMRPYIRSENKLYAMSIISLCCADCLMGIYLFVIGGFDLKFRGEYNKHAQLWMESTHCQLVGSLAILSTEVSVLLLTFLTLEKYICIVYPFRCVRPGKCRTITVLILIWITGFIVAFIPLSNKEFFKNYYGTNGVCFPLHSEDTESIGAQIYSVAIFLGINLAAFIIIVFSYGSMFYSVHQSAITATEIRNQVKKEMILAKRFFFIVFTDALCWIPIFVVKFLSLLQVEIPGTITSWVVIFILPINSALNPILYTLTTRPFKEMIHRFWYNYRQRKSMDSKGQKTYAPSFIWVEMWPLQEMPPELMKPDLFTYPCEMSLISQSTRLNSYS
experiment: hRXFP1 HEK293 cAMP assay (HTRF)
Type: cell-based
recorded-conditions: HEK293 cells stably expressing human RXFP1, 30 min at room temperature
Lab note: anything with EC50 below 400 nM is marked label 1; values at 400 nM or higher are marked label 0.

// known answers, use as guide
compound: COc1ccc(Cc2ccc(F)cc2)cc1C(=O)N[C@H]1[C@@H](C(=O)Nc2ccc(F)c(C(F)(F)F)c2)[C@H]2CC[C@@H]1/C2=C\C(F)(F)F
category: label 0

compound: COc1ccc(CC2CCOCC2)cc1C(=O)NC1C2CCC(/C2=C/C(F)(F)F)[C@@H]1C(=O)Nc1ccc(F)c(C(F)(F)F)c1 (some centres unmarked)
category: label 1

compound: COc1cc(F)c(O[C@H]2CC[C@](C)(C(=O)O)CC2)cc1C(=O)N[C@@H]1C2CCC(/C2=C/C2CC2)[C@@H]1C(=O)Nc1ccc(F)c(C(F)(F)F)c1 (some centres unmarked)
category: label 1

compound: COc1ccc(S(=O)(=O)N2CCNCC2CCO)cc1C(=O)N[C@H]1[C@@H](C(=O)Nc2ccc(F)c(C(F)(F)F)c2)[C@H]2CC[C@@H]1/C2=C\C(F)(F)F (some centres unmarked)
category: label 1

I wonder whether COc1ccc(COC2CCC(OCc3ccccc3)CC2)cc1C(=O)N[C@@H]1C2CCC(/C2=C/C2CC2)[C@@H]1C(=O)Nc1ccc(F)c(C(F)(F)F)c1 (single isomer, unassigned) [Example 23] has EC50 below 400 nM. Can you tell? label 0
